Could you please report measured kon for the items listed next?
Molecular target: T1, human VEGF (human, UniProt P15692 207-395, biotinylated (site not stated))
T1 construct: Biotinylated human VEGF generated internally; also called hVEGF; hVEGF-biotin
T1 sequence: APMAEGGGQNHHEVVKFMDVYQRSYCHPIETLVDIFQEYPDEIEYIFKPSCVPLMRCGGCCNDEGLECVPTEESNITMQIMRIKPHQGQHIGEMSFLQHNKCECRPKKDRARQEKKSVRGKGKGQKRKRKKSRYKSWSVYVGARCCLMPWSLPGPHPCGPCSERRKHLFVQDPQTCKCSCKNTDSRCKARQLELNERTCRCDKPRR
Assay: Biacore SPR, hVEGF
Quick reminder: number only, in M⁻¹ s⁻¹, skip the unit.

Prompt line: GET /values?readout=kon&item= NVS4 light chain variant Y92F (Fab, V domains shown, CDR variant of NVS4) VH: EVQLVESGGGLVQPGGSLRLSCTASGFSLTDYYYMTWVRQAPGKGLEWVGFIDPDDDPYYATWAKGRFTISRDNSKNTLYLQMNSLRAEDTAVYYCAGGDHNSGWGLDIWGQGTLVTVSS VL: EIVMTQSPSTLSASVGDRVIITCQASEIIHSWLAWYQQKPGKAPKLLIYLASTLASGVPSRFSGSGSGAEFTLTISSLQPDDFATYYCQNVFLASTNGANFGQGTKLTVLK
Response line: 1.89e+06

Prompt line: GET /values?readout=kon&item= LC6T (Fab, V domains shown, Light chain CDR variant LC6 with tagged NVS4 heavy chain) VH: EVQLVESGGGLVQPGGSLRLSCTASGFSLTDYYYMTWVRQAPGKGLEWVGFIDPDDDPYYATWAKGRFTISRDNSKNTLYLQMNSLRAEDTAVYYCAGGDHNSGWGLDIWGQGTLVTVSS VL: EIVMTQSPSTLSASVGDRVIITCQASQIIHSWLAWYQQKPGKAPKLLIYQASTLAKGVPSRFSGSGSGAEFTLTISSLQPDDFATYYCQNVYLASRNGANFGQGTKLTVLK
Response line: 8.88e+07

Prompt line: GET /values?readout=kon&item= LC2T (Fab, V domains shown, Light chain CDR variant LC2 with tagged NVS4 heavy chain) VH: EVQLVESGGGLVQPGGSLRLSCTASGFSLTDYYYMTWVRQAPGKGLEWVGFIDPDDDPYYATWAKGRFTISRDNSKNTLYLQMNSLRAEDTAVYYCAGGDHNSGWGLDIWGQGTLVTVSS VL: EIVMTQSPSTLSASVGDRVIITCQASQKIHSWLAWYQQKPGKAPKLLIYQASKLAKGVPSRFSGSGSGAEFTLTISSLQPDDFATYYCQNVYLASTNGANFGQGTKLTVLK
Response line: 8.18e+07

Prompt line: GET /values?readout=kon&item= NVS4 heavy chain variant Y59F (Fab, V domains shown, CDR variant of NVS4) VH: EVQLVESGGGLVQPGGSLRLSCTASGFSLTDYYYMTWVRQAPGKGLEWVGFIDPDDDPFYATWAKGRFTISRDNSKNTLYLQMNSLRAEDTAVYYCAGGDHNSGWGLDIWGQGTLVTVSS VL: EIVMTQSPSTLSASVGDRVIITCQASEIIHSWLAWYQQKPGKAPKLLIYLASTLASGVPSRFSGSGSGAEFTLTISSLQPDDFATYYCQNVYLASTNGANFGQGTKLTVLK
Response line: 3.34e+06

Prompt line: GET /values?readout=kon&item= NVS4 heavy chain variant D31S (Fab, V domains shown, CDR variant of NVS4) VH: EVQLVESGGGLVQPGGSLRLSCTASGFSLTSYYYMTWVRQAPGKGLEWVGFIDPDDDPYYATWAKGRFTISRDNSKNTLYLQMNSLRAEDTAVYYCAGGDHNSGWGLDIWGQGTLVTVSS VL: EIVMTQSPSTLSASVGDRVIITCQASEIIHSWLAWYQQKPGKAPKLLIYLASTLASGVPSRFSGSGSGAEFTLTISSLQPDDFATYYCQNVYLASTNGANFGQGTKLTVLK
Response line: 5.27e+06
